biological target: Epidermal growth factor receptor (Homo sapiens) (UniProt P00533); experiment: EGFR binders on small-molecule microarrays, primary screen, biochemical, small-molecule microarray, 635 nm fluorescence (AID 1104); conditions: EGFR binding, higher = more signal;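 also: score merges 667 nm emission intensity with spot signal to noise over triplicate slides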
Sequence (P00533 whole entry, looked up): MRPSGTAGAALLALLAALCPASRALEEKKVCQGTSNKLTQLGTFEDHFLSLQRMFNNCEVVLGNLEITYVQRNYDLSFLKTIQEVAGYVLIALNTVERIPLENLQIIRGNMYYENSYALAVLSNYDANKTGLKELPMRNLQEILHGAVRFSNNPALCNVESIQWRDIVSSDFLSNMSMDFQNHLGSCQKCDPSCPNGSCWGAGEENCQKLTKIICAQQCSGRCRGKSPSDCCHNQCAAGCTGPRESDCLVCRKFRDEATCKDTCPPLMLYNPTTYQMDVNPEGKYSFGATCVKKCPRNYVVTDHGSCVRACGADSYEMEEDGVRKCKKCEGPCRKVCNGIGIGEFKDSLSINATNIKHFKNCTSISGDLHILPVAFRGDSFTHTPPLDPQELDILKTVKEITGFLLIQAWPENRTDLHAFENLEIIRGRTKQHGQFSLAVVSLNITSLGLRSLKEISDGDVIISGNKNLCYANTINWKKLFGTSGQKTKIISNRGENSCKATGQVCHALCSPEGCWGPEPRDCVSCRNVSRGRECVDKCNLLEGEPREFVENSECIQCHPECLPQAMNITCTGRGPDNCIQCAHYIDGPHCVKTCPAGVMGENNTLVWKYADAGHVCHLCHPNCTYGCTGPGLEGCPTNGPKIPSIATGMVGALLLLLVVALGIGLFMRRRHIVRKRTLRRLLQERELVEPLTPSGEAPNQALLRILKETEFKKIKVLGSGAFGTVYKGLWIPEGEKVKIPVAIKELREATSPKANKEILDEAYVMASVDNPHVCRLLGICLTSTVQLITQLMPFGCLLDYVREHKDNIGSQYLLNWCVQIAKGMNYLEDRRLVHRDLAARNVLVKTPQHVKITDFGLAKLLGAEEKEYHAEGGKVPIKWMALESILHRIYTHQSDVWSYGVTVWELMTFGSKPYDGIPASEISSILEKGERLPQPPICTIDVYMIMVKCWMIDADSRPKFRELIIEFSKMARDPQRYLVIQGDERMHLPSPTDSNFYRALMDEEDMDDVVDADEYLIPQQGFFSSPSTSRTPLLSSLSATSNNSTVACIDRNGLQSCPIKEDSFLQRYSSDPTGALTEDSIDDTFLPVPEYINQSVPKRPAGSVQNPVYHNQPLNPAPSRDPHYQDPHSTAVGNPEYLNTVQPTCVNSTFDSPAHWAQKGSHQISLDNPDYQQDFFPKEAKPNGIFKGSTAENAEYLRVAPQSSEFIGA
Values of composite z-score greater than or equal to 0.4 map to Yes; values below map to No.

Compound: COCC1=C2[C@@H](CCc3ccccc3)OB(O)C[C@@H]2[C@@H]2C(=O)N(Cc3ccccc3)C(=O)[C@@H]2C1
Study target: Epidermal growth factor receptor (Homo sapiens) (UniProt P00533)
Assigned category: No
//
Compound: CCOC(=O)C1=C[C@@H](C(C)C)N(S(=O)(=O)c2ccc(C)cc2)[C@H]1c1ccc(C(C)C)cc1
Study target: Epidermal growth factor receptor (Homo sapiens) (UniProt P00533)
Assigned category: Yes
//
Compound: C#CCN(C(/C=C/c1ccccc1)CO)C(C(=O)O)c1ccccc1 (stereo not given)
Study target: Epidermal growth factor receptor (Homo sapiens) (UniProt P00533)
Assigned category: No
//
Compound: O=C(NCc1ccccc1)[C@]1(CCS(=O)(=O)c2ccccc2)N=C(c2ccc(OCCCO)cc2)O[C@@H]1c1ccccc1
Study target: Epidermal growth factor receptor (Homo sapiens) (UniProt P00533)
Assigned category: No
//
Compound: Cc1cc(C)c(C(O)C2C=CC3C(=O)N(C)C(=O)C3N2Nc2ccccc2)c(C)c1 (stereo not given)
Study target: Epidermal growth factor receptor (Homo sapiens) (UniProt P00533)
Assigned category: Yes
//
Compound: COC(=O)[C@@]1(Cc2ccc(OC)cc2)[C@H]2c3cc(C(=O)N4CCCC4)n(Cc4ccccn4)c3C[C@H]2CN1C(=O)c1ccccc1
Study target: Epidermal growth factor receptor (Homo sapiens) (UniProt P00533)
Assigned category: No
//
Compound: CCOc1cc(C(O)C2C=CC3C(=O)N(c4ccccc4)C(=O)C3N2Nc2ccc([N+](=O)[O-])cc2)ccc1O (stereo not given)
Study target: Epidermal growth factor receptor (Homo sapiens) (UniProt P00533)
Assigned category: No
//
Compound: CCCNC(=O)[C@@]1(c2ccc([N+](=O)[O-])cc2)CC(=O)N(CC23CC4CC(CC(C4)C2)C3)[C@@H]1c1ccc(CO)cc1
Study target: Epidermal growth factor receptor (Homo sapiens) (UniProt P00533)
Assigned category: Yes
//
Compound: COc1ccc([Si](C)(C)[C@@H]2[C@@H](CCn3cc([C@H](O)c4ccccc4)nn3)O[C@]3(C(=O)N(Cc4cccc(N5CCOC5=O)c4)c4ccccc43)[C@H]2C)cc1
Study target: Epidermal growth factor receptor (Homo sapiens) (UniProt P00533)
Assigned category: No
//
Compound: COc1ccc(C(O)C2C=CC3C(=O)N(C)C(=O)C3N2Nc2ccccc2)cc1OCc1ccccc1 (stereo not given)
Study target: Epidermal growth factor receptor (Homo sapiens) (UniProt P00533)
Assigned category: No
//
Compound: CC(C)(C)OC(=O)CC[C@]1(C(=O)N2CCCCC2)N=C(c2ccc(OCCCO)cc2)O[C@H]1c1ccccc1N=[N+]=[N-]
Study target: Epidermal growth factor receptor (Homo sapiens) (UniProt P00533)
Assigned category: Yes
//
Compound: COc1ccc(CCNC(=O)[C@@]2(c3ccc([N+](=O)[O-])cc3)CC(=O)N(CC34CC5CC(CC(C5)C3)C4)[C@@H]2c2ccc(CO)cc2)cc1
Study target: Epidermal growth factor receptor (Homo sapiens) (UniProt P00533)
Assigned category: Yes
//
Compound: [N-]=[N+]=NCc1ccccc1C[C@]1(C(=O)NCC(O)CO)N=C(c2ccc(OCCCO)cc2)O[C@H]1c1ccccc1N=[N+]=[N-] (stereo not given in full)
Study target: Epidermal growth factor receptor (Homo sapiens) (UniProt P00533)
Assigned category: No
//
Compound: COc1ccc(C#Cc2ccc3c(c2)[C@]2(C(=O)N3)[C@H](C(=O)NC[C@H](O)c3ccccc3)[C@H]3C(=O)O[C@H](c4ccccc4)[C@H](c4ccccc4)N3[C@@H]2c2ccccc2OCCO)cc1
Study target: Epidermal growth factor receptor (Homo sapiens) (UniProt P00533)
Assigned category: No
//
Compound: O=C1c2ccccc2[C@@]2(Cc3ccccc3N(Cc3ccccc3)C2=O)[C@H](c2ccc(CO)cc2)N1C1CCCCC1
Study target: Epidermal growth factor receptor (Homo sapiens) (UniProt P00533)
Assigned category: No

====

target: Epidermal growth factor receptor (Homo sapiens); assay: EGFR binders on small-molecule microarrays, primary screen, biochemical, small-molecule microarray, 635 nm fluorescence (AID 1104); details: EGFR binding, higher = more signal;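 also: score merges 667 nm emission intensity with spot signal to noise over triplicate slides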
Recorded measurements of composite z-score, one per entry
Observable: composite z-score

Compound: CC(C)C[C@@H]1NC(=O)[C@@H]2C[C@H](C(=O)NCCCCCC[N+](C)(C)C)[C@H](c3ccc(O)cc3)N2C1=O
Endpoint value: 0.29
//
Compound: COc1c(C)cc(-c2cc3c(c(-c4ccc(Oc5ccccc5)cc4)n2)[Si](C(C)C)(C(C)C)OC3)cc1C
Endpoint value: 0.168
//
Compound: COC(=O)[C@@]1(Cc2ccc(F)cc2)[C@H]2c3cc(C(=O)N4CCCC4)n(Cc4cccc5ccccc45)c3C[C@H]2CN1C(=O)c1ccccc1
Endpoint value: 0.329
//
Compound: NCCCCCNC(=O)[C@H]1C[C@H]2C(=O)NCC(=O)N2[C@H]1c1cccc(OCCO)c1
Endpoint value: 0.388
//
Compound: N#Cc1ccc(NN2C(C(O)C3CCCCC3)C=CC3C(=O)N(c4ccccc4)C(=O)C32)cc1 (centres undefined)
Endpoint value: -0.0355
//
Compound: COc1ccc(C(O)C2C=CC3C(=O)NC(=O)C3N2Nc2ccccn2)cc1OCc1ccccc1 (centres undefined)
Endpoint value: 0.208
//
Compound: C=CCNC(=O)[C@@H]1[C@H]2C(=O)O[C@H](c3ccccc3)[C@H](c3ccccc3)N2[C@H](c2ccccc2OCCO)[C@@]12C(=O)Nc1ccc(C#CC3=CCCCC3)cc12
Endpoint value: 0.478
//
Compound: CO[C@H]1O[C@H](CO)[C@@H](OC(=O)Nc2ccc3c(c2)OCO3)[C@H](OC(=O)Nc2ccccc2)[C@H]1OC(=O)Nc1ccccc1
Endpoint value: -0.0701
//
Compound: C=CCC(OC(C)=O)[C@@H]1[C@@H](N(Cc2cccc3ccccc23)C(=O)c2ccc(C)cc2)c2cc(OCCCO)ccc2N1C(=O)Cc1ccc(OC)cc1 (some centres undefined)
Endpoint value: 0.254
//
Compound: C=CC[C@@]1(C(=O)O)N=C(c2ccc(OCCCO)cc2)O[C@@H]1c1ccccc1N=[N+]=[N-]
Endpoint value: -0.107
//
Compound: COCCOC(=O)N1C(=O)[C@@]2(c3cc(C#CCNC(N)=O)ccc31)[C@H](c1ccc(OCCO)cc1)N1[C@H](c3ccccc3)[C@H](c3ccccc3)OC(=O)[C@H]1[C@@H]2C(=O)N1CCc2cc(OC)c(OC)cc2C1
Endpoint value: 0.803
//
Compound: CS(=O)(=O)CCOC(=O)C1=CC(CCCO)=CC(c2cccs2)N(Cc2cc3c(cc2Br)OCO3)C=C1C(=O)OCCS(C)(=O)=O (centres undefined)
Endpoint value: 0.259
//
Compound: [N-]=[N+]=NCc1ccccc1[C@H]1OC(c2ccc(OCCCO)cc2)=N[C@@]1(CCS(=O)(=O)c1ccccc1)C(=O)N1CCOCC1
Endpoint value: 0.267
//
Compound: COC(=O)[C@@]1(Cc2ccc(OC)cc2)[C@H]2c3cc(C(=O)N(C)C)n(Cc4c(OC)[nH]cc(C)c4=O)c3C[C@H]2CN1C(=O)c1ccccc1
Endpoint value: 0.197

====

system: Sam68 (KHDRBS1); test: Sam68 small-molecule binders, primary screen, biochemical, small-molecule microarray, 635 nm fluorescence (AID 1125); settings: small-molecule microarray binding, higher = more signal;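 also: score merges 667 nm channel intensity with signal to noise over triplicate slides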
Values of composite z-score greater than or equal to 1 map to 1; values below map to 0.

Compound: C=CCC(OC(C)=O)[C@@H]1[C@@H](N(Cc2cc3ccccc3o2)C(=O)c2ccc(C)cc2)c2cc(OCCCO)ccc2N1C(=O)c1ccc2ccccc2c1 (some centres undefined)
Assigned category: 0
--
Compound: [N-]=[N+]=NCc1ccccc1C[C@]1(C(=O)NCCN2CCOCC2)N=C(c2ccc(OCCCO)cc2)O[C@H]1c1ccccc1N=[N+]=[N-]
Assigned category: 1
--
Compound: COC(=O)[C@@]1(Cc2ccc(OC)cc2)[C@H]2c3cc(C(=O)N4CCCC4)n(CCc4c[nH]c5cc(F)ccc45)c3C[C@H]2CN1C(=O)c1ccccc1
Assigned category: 1
--
Compound: C=C(COC)/C(=C/C[C@H](OC(=O)c1ccncc1)c1cccc(OCCO)c1)c1cc(C(=O)OC)ccc1OC
Assigned category: 0
--
Compound: C=CCNC(=O)[C@@H]1[C@H]2C(=O)O[C@H](c3ccccc3)[C@H](c3ccccc3)N2[C@H](c2ccc(OCCO)cc2)[C@@]12C(=O)Nc1ccccc12
Assigned category: 1
--
Compound: O=C1O[C@@H](c2ccccc2)[C@@H](c2ccccc2)N2[C@@H](c3ccc(OCCO)cc3)[C@]3(C(=O)Nc4ccccc43)[C@@H](C(=O)Nc3nc4ccccc4s3)[C@H]12
Assigned category: 1
--
Compound: CC(=O)NCCCC[C@@H]1NC(=O)[C@H]2C[C@@H](C(=O)NCCCCCC[N+](C)(C)C)[C@@H](c3cccc(OCCO)c3)N2C1=O
Assigned category: 1
--
Compound: Cc1ccc(S[C@]2(C(=O)NCC(C)C)CC(=O)N(Cc3ccccc3Cl)[C@@H]2c2ccc(CO)cc2)cc1
Assigned category: 0
--
Compound: O=C1OCCC=C[C@H]2OC34C=CCN(Cc5ccccc5)C(=O)[C@H]3N(CCCO)C(=O)[C@@H]4C12 (some centres undefined)
Assigned category: 0
--
Compound: COC(=O)c1c(CC[C@@H](CO)NC(=O)N[C@@H](Cc2ccccc2)Cn2cc(C3(O)CCCCC3)nn2)oc(C(C)=O)c1C(=O)OC
Assigned category: 1
--
Compound: N#Cc1ccc(NN2C(C(O)c3ccc([N+](=O)[O-])cc3)C=CC3C(=O)N(c4ccccc4)C(=O)C32)cc1 (centres undefined)
Assigned category: 1
--
Compound: COCC(=C=CC[C@H](O)c1ccc(OCCO)cc1)C[C@H](O)c1cc(Cl)cc(Cl)c1O
Assigned category: 1
--
Compound: N#Cc1ccc(NN2C(C(O)C3CCCCC3)C=CC3C(=O)N(c4ccccc4)C(=O)C32)cc1 (centres undefined)
Assigned category: 1
--
Compound: CCOC(=O)C1=CCC(c2ccc(C#N)cc2)N(S(=O)(=O)c2ccc(C)cc2)C1 (centres undefined)
Assigned category: 1
--
Compound: O=C(CS)NCCCCCCNC(=O)[C@H]1C[C@H]2C(=O)N3CCC[C@H]3C(=O)N2[C@H]1c1cccc(OCCO)c1
Assigned category: 1
--
Compound: CCOC(=O)C[C@H]1[C@H](OC(=O)c2ccc(-c3ccccc3)cc2)[C@@H](NC(=O)c2ccc(-c3ccccc3)cc2)c2cc(OCCCO)ccc2N1C(=O)Cc1ccc(OC)cc1
Assigned category: 0
--
Compound: C#CCN(C(/C=C/c1ccccc1)CO)C(C(=O)O)c1ccccc1 (centres undefined)
Assigned category: 0
--
Compound: CC(C)C[C@@H]1NC(=O)[C@H]2C[C@@H](C(=O)NCCCCCCNC(=O)CS)[C@@H](c3cccc(OCCO)c3)N2C1=O
Assigned category: 1
--
Compound: Cc1ccc(S[C@]2(C(=O)NCc3ccccc3)CC(=O)N(Cc3ccccc3Cl)[C@@H]2c2ccc(CO)cc2I)cc1
Assigned category: 0
--
Compound: O=c1cccc(C=Cc2ccccc2)o1
Assigned category: 0
--
Compound: COc1ccc(C#Cc2ccc3c(c2)[C@]2(C(=O)N3)[C@H](C(=O)NC[C@H](O)c3ccccc3)[C@H]3C(=O)O[C@H](c4ccccc4)[C@H](c4ccccc4)N3[C@@H]2c2ccccc2OCCO)cc1
Assigned category: 1
--
Compound: O=C1C2C=CC(C(O)c3ccc(B(O)O)cc3)N(Nc3ccccc3)C2C(=O)N1c1ccccc1 (centres undefined)
Assigned category: 0
--
Compound: COc1ccc(C#Cc2ccc3c(c2)[C@]2(C(=O)N3)[C@H](c3ccc(O)cc3)N3[C@H](c4ccccc4)[C@H](c4ccccc4)OC(=O)[C@H]3[C@@H]2C(=O)N2CCCCCCC2)cc1
Assigned category: 1
--
Compound: CC(C)N1C(=O)c2ccccc2[C@@H](C(=O)NCCCN(C)C)[C@@H]1c1ccc(CO)cc1
Assigned category: 0
--
Compound: COC(=O)[C@@]1(Cc2ccc(OC)cc2)[C@H]2c3cc(C(=O)N4CCCC4)n(Cc4ccccn4)c3C[C@H]2CN1C(=O)c1ccccc1
Assigned category: 1
--
Compound: CC(C)c1ccc(NN2C(C(O)c3c(F)cccc3Cl)C=CC3C(=O)N(c4ccccc4)C(=O)C32)cc1 (centres undefined)
Assigned category: 1
--
Compound: CCCNC(=O)[C@@H]1c2ccccc2C(=O)N(Cc2ccccc2)[C@H]1c1ccc(CO)cc1
Assigned category: 0
--
Compound: C=CCNC(=O)[C@@H]1[C@H]2C(=O)O[C@H](c3ccccc3)[C@H](c3ccccc3)N2[C@H](c2ccccc2OCCO)[C@@]12C(=O)Nc1ccc(C#CC3=CCCCC3)cc12
Assigned category: 1
--
Compound: CCOC(=O)C[C@H]1[C@H](OC(=O)c2ccccc2-c2ccccc2)[C@@H](NC(=O)Cc2ccc(OC)cc2)c2cc(OCCCO)ccc2N1C(=O)c1ccccc1
Assigned category: 0
